As a worked illustration, we turn to MIC data collected for Staphylococcus aureus ATCC 29213.

stdin: API: value(readout=MIC, system=Staphylococcus aureus ATCC 29213) for record `O=C(Nc1ccc(Cl)cc1)c1cc2ccccc2cc1O`
stdout: > 860 µM

stdin: Please state recorded MIC (tested on Staphylococcus aureus ATCC 29213) of `O=C(Nc1ccccc1)c1cc2ccccc2cc1O`
stdout: > 972 µM

stdin: // map `O=C(Nc1ccccc1F)c1cc2ccccc2cc1O` to recorded MIC (system: Staphylococcus aureus ATCC 29213)
stdout: > 910 µM

stdin: Write down the reported MIC of `O=C(Nc1ccc([N+](=O)[O-])cc1)c1cc2ccccc2cc1O` , test system: Staphylococcus aureus ATCC 29213.
stdout: > 830 µM

stdin: Quick check: MIC on Staphylococcus aureus ATCC 29213, item `O=C(Nc1ccc(F)cc1)c1cc2ccccc2cc1O` ?
stdout: > 910 µM

* * *

The next entries give measured MIC for Staphylococcus aureus ATCC 29213.

Examples with answers:
{"columns": ["compound", "reported"],
 "data": [
  ["O=C(Nc1ccc(Br)cc1)c1cc2ccccc2cc1O [6c]", "> 748 µM"],
  ["Cc1ccccc1NC(=O)c1cc2ccccc2cc1O [3a]", "> 923 µM"],
  ["O=C(Nc1cccc(C(F)(F)F)c1)c1cc2ccccc2cc1O [7b]", "> 748 µM"],
  ["COc1cccc(NC(=O)c2cc3ccccc3cc2O)c1 [compound 2b]", "> 873 µM"],
  ["COc1ccccc1NC(=O)c1cc2ccccc2cc1O [compound 2a]", "55 µM"]
]}

stdin: Using the record for O=C(Nc1ccccc1[N+](=O)[O-])c1cc2ccccc2cc1O [compound 8a] , report its MIC.
stdout: > 830 µM

stdin: Request the reported MIC associated with O=C(Nc1cccc(Cl)c1)c1cc2ccccc2cc1O [5b]
stdout: > 860 µM

stdin: Param item = COc1ccc(NC(=O)c2cc3ccccc3cc2O)cc1 [2c] ; retrieve measured MIC.
stdout: > 873 µM

stdin: Give its MIC value. Item: CC1(C)S[C@@H]2[C@H](NC(=O)[C@H](N)c3ccccc3)C(=O)N2[C@H]1C(=O)O [APC, ampicillin, reference compound]
stdout: 5.7 µM

* * *

Staphylococcus aureus ATCC 29213: reported MIC for various compounds.

Answered cases to consult:
{"columns": ["record-smiles", "measured-parameter", "reported"],
 "data": [
  ["Cc1cccc(NC(=O)c2cc3ccccc3cc2O)c1", "MIC", "> 923 µM"],
  ["O=C(Nc1ccccc1Br)c1cc2ccccc2cc1O", "MIC", "> 748 µM"],
  ["O=C(Nc1cccc([N+](=O)[O-])c1)c1cc2ccccc2cc1O", "MIC", "> 830 µM"]
]}

Now, please, on to the next compound.
stdin: What measured MIC is associated with `O=C(Nc1cccc(Br)c1)c1cc2ccccc2cc1O` on Staphylococcus aureus ATCC 29213?
stdout: > 748 µM

* * *

Recorded MIC values (Staphylococcus aureus ATCC 29213) are given below.

{"columns": ["record-smiles", "reported"],
 "data": [
  ["O=C(Nc1ccc(C(F)(F)F)cc1)c1cc2ccccc2cc1O", "> 748 µM"],
  ["Cc1ccc(NC(=O)c2cc3ccccc3cc2O)cc1", "> 923 µM"],
  ["O=C(Nc1cccc(F)c1)c1cc2ccccc2cc1O", "> 910 µM"],
  ["O=C(Nc1ccccc1C(F)(F)F)c1cc2ccccc2cc1O", "> 773 µM"]
]}

The record that follows has no MIC shown yet.
stdin: MIC lookup needed for `O=C(Nc1ccccc1Cl)c1cc2ccccc2cc1O` , thanks.
stdout: > 860 µM
